Entry source: patent US10799507B2

Would you kindly list log10 EC50 for each of these compounds?
- Target Under Test: JAK1 (Homo sapiens (Human), UniProt P23458)
- Sequence (P23458 850-1154): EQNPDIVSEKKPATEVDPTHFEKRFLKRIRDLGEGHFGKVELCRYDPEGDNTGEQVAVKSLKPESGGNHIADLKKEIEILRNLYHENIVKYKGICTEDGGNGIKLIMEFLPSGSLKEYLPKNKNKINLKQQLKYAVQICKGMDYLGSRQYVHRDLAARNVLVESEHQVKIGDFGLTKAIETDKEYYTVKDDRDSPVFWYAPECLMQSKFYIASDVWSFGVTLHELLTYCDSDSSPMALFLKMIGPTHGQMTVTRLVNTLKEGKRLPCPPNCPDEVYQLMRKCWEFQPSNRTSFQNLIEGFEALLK
- Protocol Description: JAK kinase assay (HTRF), JAK1
- Measurement Parameters: catalytic domain, ATP at Km (7 μM)
Hello, just confirming the data are log10 of EC50 with units of nM.

Exercise: Provide measured log10 EC50 value, entry: N#Cc1ccc([C@@H](CO)NC(=O)C2CCN(c3ncnc4[nH]ccc34)CC23CC3)cc1 (stereo partly shown) [Example 94]
Key: 0.93

Exercise: Report log10 EC50, nothing else, for this compound: C[C@@H](NC(=O)C1CCN(c2ncnc3[nH]ccc23)CC12CC2)c1cccc(C#N)c1 (stereo partly shown) [Example 117]
Key: 1.09

Exercise: Look up and state reported log10 EC50 for C[C@H](NC(=O)C1CCN(c2ncnc3[nH]ccc23)CC12CC2)c1ccccc1 (stereo partly shown) [Example 99]
Key: 0.96

Exercise: Answer with reported log10 EC50 of O=C(NC[C@@H](O)c1ccc(F)cn1)[C@H]1CCN(c2ncnc3[nH]ccc23)CC12CC2 [Example 12]
Key: -0.10

Exercise: Quickly give me recorded log10 EC50 for C[C@@H](NC(=O)C1CCN(c2ncnc3[nH]ccc23)CC12CC2)c1ccccc1 (stereo partly shown) [Example 136]
Key: 1.53

Exercise: Determine its reported log10 EC50: C[C@H](NC(=O)[C@H]1CCN(c2ncnc3[nH]ccc23)CC12CC2)[C@@H](O)C1CCCCC1 [Example 3]
Key: -0.30

Exercise: // Input: O=C(NCC1(CO)CC(F)(F)C1)[C@H](O)CNC(=O)[C@H]1CCN(c2ncnc3[nH]ccc23)CC12CC2 [Example 129] . Output its log10 EC50 only.
Key: 1.33

Exercise: Determine from records and report log10 EC50 for O=C(N[C@H](CO)c1ccccc1)C1CCN(c2ncnc3[nH]ccc23)CC12CC2 (stereo partly shown) [Example 127]
Key: 1.30

Exercise: Identify measured log10 EC50 corresponding to NS(=O)(=O)c1cccc(CNC(=O)C2CCN(c3ncnc4[nH]ccc34)CC23CC3)c1 (stereo not shown) [Example 55]
Key: 0.57

Exercise: Quickly give me recorded log10 EC50 for O=C(NC[C@@H](O)c1ccccc1)[C@H]1CCN(c2ncnc3[nH]ccc23)CC12CC2 [Example 51]
Key: 0.54

Exercise: Give me measured log10 EC50, please, for this compound: N#CCC1(COC(=O)C2CCN(c3ncnc4[nH]ccc34)CC23CC3)CC1 (stereo not shown) [Example 164]
Key: 0.60

Exercise: Fill in reported log10 EC50 for this entry: CCc1cc(C#N)ccc1[C@@H](C)NC(=O)[C@H]1CCN(c2ncnc3[nH]ccc23)CC12CC2 [Example 121]
Key: 1.18

Exercise: Answer with the recorded log10 EC50 of COc1cc([C@@H](C)NC(=O)C2CCN(c3ncnc4[nH]ccc34)CC23CC3)ccc1F (stereo partly shown) [Example 143] only.
Key: 1.65

Exercise: Respond only with log10 EC50 recorded for C[C@@H](NC(=O)[C@H]1CCN(c2ncnc3[nH]ccc23)CC12CC2)c1ccc(C#N)cc1F [Example 101]
Key: 0.97

Exercise: Give a short answer stating reported log10 EC50 for O=C(NCc1ccc(F)cc1)C1CCN(c2ncnc3[nH]ccc23)CC12CC2 (stereo not shown) [Example 53] .
Key: 0.56

Exercise: Tell me log10 EC50 reported for Cc1cc(F)ccc1[C@H](CO)NC(=O)[C@H]1CCN(c2ncnc3[nH]ccc23)CC12CC2 [Example 77]
Key: 0.79
